target: Transcriptional enhancer factor TEF-3 (Homo sapiens) (UniProt Q15561); assay: Binding affinity to TEAD4 (unknown origin) assessed as covalent adduct formation at 0.3 mM incubated for 2 hrs by Agilent LC/MSD Time-of-Flight Mass Spectrometric analysis
Sequence (Q15561 whole entry): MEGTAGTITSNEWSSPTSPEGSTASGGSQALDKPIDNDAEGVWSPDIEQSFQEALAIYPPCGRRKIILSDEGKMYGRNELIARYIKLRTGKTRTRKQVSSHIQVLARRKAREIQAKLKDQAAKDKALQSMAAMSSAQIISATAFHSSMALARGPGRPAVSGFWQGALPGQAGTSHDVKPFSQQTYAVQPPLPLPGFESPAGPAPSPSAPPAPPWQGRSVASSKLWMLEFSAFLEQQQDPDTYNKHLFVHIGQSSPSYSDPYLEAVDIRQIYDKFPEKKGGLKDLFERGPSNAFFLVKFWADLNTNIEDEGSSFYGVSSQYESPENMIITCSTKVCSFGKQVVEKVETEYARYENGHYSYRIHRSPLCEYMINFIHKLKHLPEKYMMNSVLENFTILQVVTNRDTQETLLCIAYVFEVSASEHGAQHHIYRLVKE
Active and inactive are the calls of the source. No cut-off for these calls is given here.
ATTRIBUTE_MEASURED: Activity

molecule_smiles=CCCCCCc1cccc(Nc2cccc(NC(=O)C3CC3)c2)c1 attribute_measured=Activity reported_value=inactive
molecule_smiles=CCCCCCc1cccc(Nc2ccccc2NC(=O)CCl)c1 attribute_measured=Activity reported_value=Active
molecule_smiles=CCCCCOc1cccc(Nc2cccc(NC(C)=O)c2)c1 attribute_measured=Activity reported_value=inactive
molecule_smiles=C=CC(=O)Nc1cccc(Nc2cccc(CCCCCC)c2)c1 attribute_measured=Activity reported_value=Active
molecule_smiles=CCCCCOc1cccc(Nc2cccc(NC(=O)CCl)c2)c1 attribute_measured=Activity reported_value=Active
molecule_smiles=CCCCCCc1cccc(Nc2cccc(NC(=O)C=C(C)C)c2)c1 attribute_measured=Activity reported_value=inactive
molecule_smiles=CCCCCCc1cccc(Nc2ccccc2NC(=O)C=C(C)C)c1 attribute_measured=Activity reported_value=inactive
molecule_smiles=CCCCCCc1cccc(Nc2cccc(NC(=O)CCl)c2)c1 attribute_measured=Activity reported_value=Active
molecule_smiles=C=CC(=O)Nc1cccc(Nc2cccc(OCCCCC)c2)c1 attribute_measured=Activity reported_value=Active

###

tested on: MDA-MB-231; assay: Inhibition of TEAD in human MDA-MB-231 cells assessed as reduction in AXL gene expression level at 10 uM measured after 48 hrs by SYBR green staining based RT-qPCR analysis; format: cell-based
The source made the active and inactive calls. No cut-off for these calls is given here.
Possible outcomes: YES = active, NO = inactive

molecule_smiles=CCCCCCc1cccc(Nc2cccc(NC(=O)CCl)c2)c1 assayed_system=MDA-MB-231 class_assignment=NO
molecule_smiles=C=CC(=O)Nc1ccccc1Nc1cccc(OCCCCC)c1 assayed_system=MDA-MB-231 class_assignment=YES
molecule_smiles=C=CC(=O)Nc1cccc(Nc2cccc(OCCCCC)c2)c1 assayed_system=MDA-MB-231 class_assignment=YES
molecule_smiles=CCCCCOc1cccc(Nc2cccc(NC(C)=O)c2)c1 assayed_system=MDA-MB-231 class_assignment=NO
molecule_smiles=C=CC(=O)Nc1ccccc1Nc1cccc(CCCCCC)c1 assayed_system=MDA-MB-231 class_assignment=YES
molecule_smiles=C=CC(=O)Nc1cccc(Nc2cccc(CCCCCC)c2)c1 assayed_system=MDA-MB-231 class_assignment=YES

The reported numbers originate from ChEMBL document CHEMBL5370688.
